Cited source for all entries: a melting point compilation (Tetko et al.)

I'd appreciate it if you could supply melting point values for the items below.

Req: Report melting point for OC1OC(C2COC3(CCCCC3)O2)C2OC3(CCCCC3)OC12 (stereo not drawn) please.
Resp: 120 to 124 °C

Req: Requested read-out: melting point. Entry: CC(=O)C=C(C)N1CCCC1
Resp: 114 to 116 °C

Req: # query: melting point of entry CCOC(=O)c1[nH]c(C)c(CC)c1C
Resp: 87 to 88 °C

====

Answer each item with its documented melting point.

Req: Find the recorded melting point belonging to CC(CN)C(=O)O (racemic) and report it.
Resp: 177 to 181 °C

Req: Look up melting point for this compound: OCc1cccc(COc2ccccc2)c1
Resp: 58 to 60 °C

Req: Please look up its melting point: OCc1ccc(-n2cccn2)cc1
Resp: 76 to 80 °C

Req: Tell me the measured melting point of COc1ccc(-n2ncc(C(=O)O)c2C)cc1 , please.
Resp: 212 to 213 °C

Req: Please look up its melting point: Clc1ccc2nc(Cl)c(Cl)nc2c1
Resp: 143 to 148 °C

Req: Need melting point, item COC(=O)C1=NC(C)(C)[N+]([O-])=C1
Resp: 80 to 83 °C
